Would you kindly list EC50 for each of these molecules?
Target: indoleamine 2, 3-dioxygenase (IDO1) (Homo sapiens, UniProt P14902)
Sequence (P14902 whole entry): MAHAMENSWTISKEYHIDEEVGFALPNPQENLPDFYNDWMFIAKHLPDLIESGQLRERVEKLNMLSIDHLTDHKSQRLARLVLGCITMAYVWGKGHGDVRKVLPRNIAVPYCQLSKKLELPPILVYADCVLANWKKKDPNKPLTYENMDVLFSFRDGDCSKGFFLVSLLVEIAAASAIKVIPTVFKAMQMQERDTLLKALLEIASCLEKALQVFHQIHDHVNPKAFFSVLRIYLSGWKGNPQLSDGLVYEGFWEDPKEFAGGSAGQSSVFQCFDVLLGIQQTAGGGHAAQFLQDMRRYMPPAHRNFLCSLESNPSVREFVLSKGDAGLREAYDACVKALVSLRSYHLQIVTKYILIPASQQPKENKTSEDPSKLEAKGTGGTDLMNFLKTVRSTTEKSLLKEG
Assay: PBMC IDOi assay (kynurenine detection by mass spectrometry)
Assay type: cell-based
Details: IFN-γ and LPS stimulated human PBMC, 2 days
Method: Compounds of the present invention were tested via high-throughput cellular assays utilizing detection of kynurenine via mass spectrometry and cytotoxicity as end-points. […] Cellular toxicity due to the effect of compound treatment was measured using CellTiter-Glo® reagent (CTG) (Promega Corporation, Madison, Wis.), which is based on luminescent detection of ATP, an indicator of metabolically active cells. […]

Need EC50, item CC(C)CN(c1ccc(C(C)CC(=O)O)cc1NCc1nccs1)C1CCCCC1 (centres unmarked)
251 nM

Need EC50, item CC(C)CN(c1ccc(C(C)CC(=O)O)cc1Nc1ccccc1)C1CCCCC1 (centres unmarked)
3.16 nM

Need EC50, item CC(C)CN(CC(C)C)c1ccc([C@H](C)CC(=O)O)cc1Nc1nc(C(F)(F)F)ns1
2 nM

Need EC50, item CC(C)CN(c1ccc([C@@H](C)CC(=O)O)cc1Nc1nc(Cl)ns1)C1CCCCC1
1.26 nM

Need EC50, item CC(C)CN(c1ccc(C(CC(=O)O)C(F)(F)F)cc1Nc1nc(Cl)ns1)C1CCCCC1 (centres unmarked)
0.794 nM

Need EC50, item CC(C)CN(c1ccc(C(C)CC(=O)O)cc1Nc1ccc(C#N)cc1)C1CCCCC1 (centres unmarked)
0.794 nM

Need EC50, item CC(C)CN(c1ccc([C@H](C)CC(=O)O)cc1Nc1nnc(C2CC2)s1)C1CCCCC1
0.251 nM

Need EC50, item CC(C)CN(c1ccc(C(C)CC(=O)O)cc1NC1=N[C@@H](C(F)(F)F)CO1)C1CCCCC1 (some centres unmarked)
20 nM

----------
Molecular target: UniProt P14902
Test: HeLa IDOi assay (kynurenine detection by mass spectrometry)
Type: cell-based
Design: human epithelial HeLa cells (CCL-2; host or cells: HeLa cells stimulated with human IFN-γ
Conditions: IFN-γ stimulated human epithelial HeLa cells, 2 days
Reported Metric: pEC50
// scale note: pEC50 = -log10(conc_M); give the bare number

Need pEC50, item CC(C)CN(CC(C)C)c1ccc(C(C)CC(=O)O)cc1Nc1cnccn1 (centres unmarked)
6.50

Need pEC50, item Cc1ccccc1CNc1cc(C(C)CC(=O)O)ccc1N(CC(C)C)C1CCCCC1 (centres unmarked)
6.50

Need pEC50, item CC(C)CN(CC(C)C)c1ccc(C(C)CC(=O)O)cc1Nc1ccnc(Cl)n1 (centres unmarked)
7.00

Need pEC50, item CC(C)CN(c1ccc([C@H](C)CC(=O)O)cc1Nc1ccnc(Cl)n1)C1CCCCC1
7.50

Need pEC50, item CC(C)CN(c1ccc(C(C)CC(=O)O)cc1NC1=N[C@@H](C(F)(F)F)CO1)C1CCCCC1 (some centres unmarked)
7.50

Need pEC50, item CC(C)CN(c1ccc([C@H](C)CC(=O)O)cc1Nc1nc(C(F)(F)F)ns1)C1CCCCC1
8.40

Need pEC50, item CC(C)CN(CC(C)C)c1ccc(C(C)CC(=O)O)cc1Nc1cnc(-c2ccccc2)s1 (centres unmarked)
6.90

Need pEC50, item CC(C)CN(c1ccc([C@@H](C)CC(=O)O)cc1Nc1nc(C(F)(F)F)ns1)C1CCCCC1
8.70

Need pEC50, item CC(C)CN(CC(C)C)c1ccc(C(C)CC(=O)O)cc1Nc1nc(C(F)(F)F)ns1 (centres unmarked)
8.40

Need pEC50, item CC(C)CN(CC(C)C)c1ccc(C(C)CC(=O)O)cc1Nc1nc2ccccc2[nH]1 (centres unmarked)
8.40

Need pEC50, item CC(C)CN(c1ccc(C(C)CC(=O)O)cc1NC1=N[C@H](C(F)(F)F)CS1)C1CCCCC1 (some centres unmarked)
7.50

Need pEC50, item CC(C)CN(c1ccc(C(C)CC(=O)O)cc1Nc1nc(-c2ccccc2)co1)C1CCCCC1 (centres unmarked)
7.00

Need pEC50, item CC(C)CN(CC(C)C)c1ccc(C(C)CC(=O)O)cc1Nc1ccncc1 (centres unmarked)
6.50

Need pEC50, item CC(C)CN(CC(C)C)c1ccc(C(C)CC(=O)O)cc1Nc1nc(-c2ccccc2)no1 (centres unmarked)
6.40

Need pEC50, item Cc1nc(C(F)(F)F)sc1Nc1cc(C(C)CC(=O)O)ccc1N(CC(C)C)CC(C)C (centres unmarked)
6.30

Need pEC50, item CC(C)CN(c1ccc([C@H](C)CC(=O)O)cc1Nc1nnc(C2CC2)s1)C1CCCCC1
8.50

Need pEC50, item CC(C)CN(CC(C)C)c1ccc(C(C)CC(=O)O)cc1Nc1nc2ccccc2o1 (centres unmarked)
6.40
